System: HCT-116
experimental.details: cells
test.settings: Homo sapiens, HCT-116, 48 h
Description: Cytotoxicity against human HCT116 cells assessed as inhibition of cell proliferation after 48 hrs by MTT assay
Binary call on IC50 with cut-off 30 µM: strictly below means Yes, and equality or higher means No.

[[record]]
smiles_repr = "N#Cc1ccc(S(=O)(=O)N(c2ccccc2)c2ccnc3ccc(-c4ccc(O)cc4)cc23)cc1"
category_label = "No"

[[record]]
smiles_repr = "O=S(=O)(c1ccccc1)N(c1ccccc1)c1ccnc2ccc(-c3ccc(O)cc3)cc12"
category_label = "Yes"

[[record]]
smiles_repr = "CC(C)(C)c1ccc(S(=O)(=O)N(c2ccccc2)c2ccnc3ccc(-c4ccc(O)cc4)cc23)cc1"
category_label = "No"

[[record]]
smiles_repr = "O=[N+]([O-])c1cc(S(=O)(=O)N(c2ccccc2)c2ccnc3ccc(-c4ccc(O)cc4)cc23)ccc1C(F)(F)F"
category_label = "No"

[[record]]
smiles_repr = "COc1ccc(-c2ccc3nccc(Nc4ccccc4)c3c2)cc1"
category_label = "No"

[[record]]
smiles_repr = "Nc1ccc(S(=O)(=O)N(c2ccccc2)c2ccnc3ccc(-c4ccc(O)cc4)cc23)cc1"
category_label = "Yes"

[[record]]
smiles_repr = "Cc1c(C)c(C)c(S(=O)(=O)N(c2ccccc2)c2ccnc3ccc(-c4ccc(O)cc4)cc23)c(C)c1C"
category_label = "No"

[[record]]
smiles_repr = "Oc1ccc(-c2ccc3nccc(Nc4ccccc4)c3c2)cc1"
category_label = "Yes"

[[record]]
smiles_repr = "COc1ccc(S(=O)(=O)N(c2ccccc2)c2ccnc3ccc(-c4ccc(O)cc4)cc23)cc1"
category_label = "No"

[[record]]
smiles_repr = "O=C(c1ccccc1F)N(c1ccccc1)c1ccnc2ccc(-c3ccc(O)cc3)cc12"
category_label = "No"

